test_method_notes: UV absorption (UV λmax and εmax) in solution
Format: physicochemical
condition_description: DMSO
# note: exactly 300 nm is not below, so it is 0; use 1 for UV λmax strictly under it

| compound | group_label |
| --- | --- |
| CCCCCCCCCCCCCCCCCCOC(=O)c1ccc(NC2=NC3=NC(Nc4ccc(C(=O)OCCCCCCCCCCCCCCCCCC)cc4)=NC4=NC(Nc5ccc(C(=O)OCCCCCCCCCCCCCCCCCC)cc5)=NC(=N2)N34)cc1 | 0 |
| CCCCCCCCCCCCOC(=O)c1ccc(NC2=NC3=NC(Nc4ccc(C(=O)OCCCCCCCCCCCC)cc4)=NC4=NC(Nc5ccc(C(=O)OCCCCCCCCCCCC)cc5)=NC(=N2)N34)cc1 | 0 |
| Cc1ccc(C2=NC3=NC(c4ccc(C)cc4)=NC4=NC(c5ccc(C)cc5)=NC(=N2)N34)cc1 | 0 |
| c1ccn2cc(-c3ccc(NC4=NC5=NC(Nc6ccc(-c7cn8ccccc8n7)cc6)=NC6=NC(Nc7ccc(-c8cn9ccccc9n8)cc7)=NC(=N4)N56)cc3)nc2c1 | 0 |
| CCCCC(CC)COC(=O)/C=C/c1cccc(NC2=NC3=NC(Nc4cccc(/C=C/C(=O)OCC(CC)CCCC)c4)=NC4=NC(Nc5cccc(/C=C/C(=O)OCC(CC)CCCC)c5)=NC(=N2)N34)c1 (centres unmarked) | 1 |

---

test_method_notes: UV absorption (UV λmax and εmax) in solution
Assay type: physicochemical
condition_description: DMSO
# note: exactly 300 nm is not below, so it is NO; use YES for UV λmax strictly under it

| molecule | group_label |
| --- | --- |
| C(=C\c1ccc(NC2=NC3=NC(Nc4ccc(/C=C/c5ccccc5)cc4)=NC4=NC(Nc5ccc(/C=C/c6ccccc6)cc5)=NC(=N2)N34)cc1)/c1ccccc1 | NO |
| C(=C\c1cccc(NC2=NC3=NC(Nc4cccc(/C=C/c5ccccc5)c4)=NC4=NC(Nc5cccc(/C=C/c6ccccc6)c5)=NC(=N2)N34)c1)/c1ccccc1 | NO |
| Cc1cc(N)c(NC2=NC3=NC(Nc4cc(C)c(C)cc4N)=NC4=NC(Nc5cc(C)c(C)cc5N)=NC(=N2)N34)cc1C | YES |
| CC1CC(OC(=O)c2ccc(NC3=NC4=NC(Nc5ccc(C(=O)OC6CC(C)CC(C)(C)C6)cc5)=NC5=NC(Nc6ccc(C(=O)OC7CC(C)CC(C)(C)C7)cc6)=NC(=N3)N45)cc2)CC(C)(C)C1 (stereo not shown) | NO |
| O=C(c1ccccc1)c1ccc(NC2=NC3=NC(Nc4ccc(C(=O)c5ccccc5)cc4)=NC4=NC(Nc5ccc(C(=O)c6ccccc6)cc5)=NC(=N2)N34)cc1 | NO |
| CCCCC(CC)COC(=O)/C=C/c1ccc(NC2=NC3=NC(Nc4ccc(/C=C/C(=O)OCC(CC)CCCC)cc4)=NC4=NC(Nc5ccc(/C=C/C(=O)OCC(CC)CCCC)cc5)=NC(=N2)N34)cc1 (stereo not shown) | NO |
| CCCCC(CC)CNC1=NC2=NC(NCC(CC)CCCC)=NC3=NC(NCC(CC)CCCC)=NC(=N1)N23 (stereo not shown) | YES |
| c1cc2cc(NC3=NC4=NC(Nc5ccc6[nH]ccc6c5)=NC5=NC(Nc6ccc7[nH]ccc7c6)=NC(=N3)N45)ccc2[nH]1 | NO |
| c1ccc(-c2ccc(NC3=NC4=NC(Nc5ccc(-c6ccccc6)cc5)=NC5=NC(Nc6ccc(-c7ccccc7)cc6)=NC(=N3)N45)cc2)cc1 | NO |
| CCCCCCCCC(CCCCCC)COC(=O)c1ccc(NC2=NC3=NC(Nc4ccc(C(=O)OCC(CCCCCC)CCCCCCCC)cc4)=NC4=NC(Nc5ccc(C(=O)OCC(CCCCCC)CCCCCCCC)cc5)=NC(=N2)N34)cc1 (stereo not shown) | NO |

---

Entries and their measured εmax follow.
test_method_notes: UV absorption (UV λmax and εmax) in solution
Assay type: physicochemical
condition_description: DMSO

| mol | εmax [M⁻¹ cm⁻¹] |
| --- | --- |
| COC(=O)c1ccc(-c2ccc(NC3=NC4=NC(Nc5ccc(-c6ccc(C(=O)OC)cc6)cc5)=NC5=NC(Nc6ccc(-c7ccc(C(=O)OC)cc7)cc6)=NC(=N3)N45)cc2)cc1 | 99000 |
| c1ccc(Nc2ccc(NC3=NC4=NC(Nc5ccc(Nc6ccccc6)cc5)=NC5=NC(Nc6ccc(Nc7ccccc7)cc6)=NC(=N3)N45)cc2)cc1 | 60000 |
| COc1ccc(NC2=NC3=NC(Nc4ccc(OC)cc4)=NC4=NC(Nc5ccc(OC)cc5)=NC(=N2)N34)cc1 | 59000 |
